The measured values listed here are drawn from ChEMBL document CHEMBL5380793.

# ASSAY_NOTES: Cytotoxicity against human HepG2 cells assessed as inhibition of cell growth incubated for 48 hrs by MTT assay
# Assay type: toxicity, cell-based
READOUT_KIND: IC50 at 48 h (nM)
Report only the number, with the unit nM understood.

# count of solved cases: 4
Cc1cc(Nc2nc(-c3ccc(CO)cc3)ncc2Cl)c(OC(C)C)cc1C1CCNCC1 = 2000
Cc1cc(Nc2nc(-c3cccc(O)c3)ncc2Cl)c(OC(C)C)cc1C1CCNCC1 = 1300
Cc1cc(Nc2nc(-c3ccccc3)ncc2Cl)c(OC(C)C)cc1C1CCNCC1 = 3100
Cc1cc(Nc2nc(-c3cccc4ccccc34)ncc2Cl)c(OC(C)C)cc1C1CCNCC1 = 500

Q: Need IC50 at 48 h of Cc1cc2nc(-c3ccccc3)cc(Nc3cc(C)c(C4CCNCC4)cc3OC(C)C)n2n1 , thanks.
Result: 4700

Q: What value of IC50 at 48 h has been reported for the following compound? Cc1cc(Nc2nc(-c3ccc4ccccc4c3)ncc2Cl)c(OC(C)C)cc1C1CCNCC1
Result: 500

Q: Param item = Cc1cc(Nc2nc(NC3CCCC3)ncc2Cl)c(OC(C)C)cc1C1CCNCC1 ; retrieve measured IC50 at 48 h.
Result: 3800

Q: Consider the compound shown here: CC(C)COc1cc(N2CCNCC2)ccc1Nc1nc(-c2ccccc2)ncc1Cl What is its recorded IC50 at 48 h?
Result: 2600

Q: Look up IC50 at 48 h: Clc1cnc(-c2ccccc2)nc1Nc1ccc(N2CCNCC2)cc1
Result: 3300

Q: Which IC50 at 48 h is listed for CCc1ncc(Cl)c(Nc2cc(C)c(C3CCNCC3)cc2OC(C)C)n1 ?
Result: 8000

Q: Fill in: IC50 at 48 h of CC(C)Oc1cc(N2CCNCC2)ccc1Nc1nc(-c2ccccc2)ncc1Cl is ___
Result: 2900

###

# SYSTEM_UNDER_TEST: Serine/threonine-protein kinase PknB (Mycobacterium tuberculosis, UniProt P9WI81)
# Sequence (P9WI81 whole entry): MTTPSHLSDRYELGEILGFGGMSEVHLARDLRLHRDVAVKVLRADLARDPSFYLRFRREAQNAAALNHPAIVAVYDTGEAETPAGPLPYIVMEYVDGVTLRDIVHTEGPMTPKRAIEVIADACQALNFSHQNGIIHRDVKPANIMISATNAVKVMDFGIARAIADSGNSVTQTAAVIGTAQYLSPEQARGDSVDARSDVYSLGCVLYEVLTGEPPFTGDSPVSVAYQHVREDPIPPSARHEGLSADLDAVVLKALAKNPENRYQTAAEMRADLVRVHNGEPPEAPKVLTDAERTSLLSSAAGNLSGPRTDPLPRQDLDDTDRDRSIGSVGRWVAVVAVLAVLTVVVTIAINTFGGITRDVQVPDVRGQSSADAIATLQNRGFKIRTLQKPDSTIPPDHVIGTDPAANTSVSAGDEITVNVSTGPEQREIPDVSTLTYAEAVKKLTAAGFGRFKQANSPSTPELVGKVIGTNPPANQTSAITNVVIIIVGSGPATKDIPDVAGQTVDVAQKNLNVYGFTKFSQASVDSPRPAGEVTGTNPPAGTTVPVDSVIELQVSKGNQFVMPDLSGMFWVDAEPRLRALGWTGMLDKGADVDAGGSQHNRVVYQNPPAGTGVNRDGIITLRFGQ
READOUT_KIND: pKd
pKd here: minus log base 10 of the concentration, concentration in moles per litre.

Q: pKd lookup needed for Cc1cc(Nc2nc(-c3ccccc3)ncc2Cl)c(OC(C)C)cc1C1CCNCC1 , thanks.
Result: 5.03

###

# ASSAY_NOTES: Oral bioavailability in Sprague-Dawley rat at 15 mg/kg measured for 24 hrs by LC-MS analysis
# Type: ADME, organism-based
# CONDITION_PARAMETERS: in vivo
Catalogue of bioavailability values
// return the numeric value with its unit appended

Cc1cc(Nc2nc(-c3ccccc3)ncc2Cl)c(OC(C)C)cc1C1CCNCC1 = 40.7%

Q: Tell me the measured bioavailability of Cc1cc(Nc2ncc(Cl)c(Nc3cccc4ccccc34)n2)c(OC(C)C)cc1C1CCNCC1 , please.
Result: 17.5%
